Reference source for all entries: patent US20130029970A1

system.tested: recombinant human cannabinoid receptor CB2 (Homo sapiens)
Construct: (cDNA clone) CNR0200000
Sequence (P34972 whole entry): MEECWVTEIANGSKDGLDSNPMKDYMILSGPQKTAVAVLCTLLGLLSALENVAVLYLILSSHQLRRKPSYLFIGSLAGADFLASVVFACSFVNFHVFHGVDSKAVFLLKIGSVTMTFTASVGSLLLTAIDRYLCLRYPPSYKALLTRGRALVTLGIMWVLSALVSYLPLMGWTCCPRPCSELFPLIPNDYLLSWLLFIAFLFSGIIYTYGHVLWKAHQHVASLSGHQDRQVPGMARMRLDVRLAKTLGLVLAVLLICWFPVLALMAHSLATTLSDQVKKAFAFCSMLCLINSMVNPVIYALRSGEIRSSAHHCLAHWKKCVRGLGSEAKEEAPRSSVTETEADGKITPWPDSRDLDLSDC
assay.info: Cannabinoid receptor radioligand binding assay, [3H]-CP 55,940 displacement, hCB2
outcome.measure: IC50

[in] Requested read-out: IC50. Entry: COc1ccc(C(O)c2cc3cc(C)n(CCN4CCOCC4)c3s2)cc1 (stereo not drawn)
[out] 100 to 1000 nM

[in] Would you mind doing `Cc1ccc(C(=O)c2cc3cc(C)n(CCN4CCOCC4)c3s2)cn1` as well?
[out] 1000 to 10000 nM

[in] Would you mind doing `COc1ccc(C(=O)c2cc3cc(C)n(CCCCNS(C)(=O)=O)c3s2)cc1` as well?
[out] < 100 nM

[in] Would you mind doing `Cc1ccc(C(=O)c2cc3cc(C)n(CCN4CCOCC4)c3s2)cc1` as well?
[out] 100 to 1000 nM

[in] Would you mind doing `Cc1cc2cc(C(=O)c3ccccn3)sc2n1CCN1CCOCC1` as well?
[out] 1000 to 10000 nM

[in] Would you mind doing `CCOC(=O)CCn1c(C)cc2cc(C(=O)c3ccc(OC)cc3)sc21` as well?
[out] 1000 to 10000 nM

[in] Would you mind doing `COc1ccc(C(=O)c2cc3cc(C)n(CCCNS(C)(=O)=O)c3s2)c(Cl)c1` as well?
[out] < 100 nM

[in] Would you mind doing `COc1ccc(C(=O)c2cc3cc(C)n(CCCNC(=O)C(F)(F)F)c3s2)cc1` as well?
[out] 100 to 1000 nM

[in] Would you mind doing `Cc1cc2cc(C(=O)c3cccnc3Cl)sc2n1CCN1CCOCC1` as well?
[out] 100 to 1000 nM
